- test_name: qHTS assay for identifying genotoxic compounds that show differential cytotoxicity against isogenic chicken DT40 cell lines with known DNA damage response pathways - Rev3 mutant cell line (AID 743014); also: nearly all actives have a fitted effect of over 55% in size
- condition_label: chicken DT40 Rev3-/- viability, CellTiter-Glo, 40 h; series mostly up to 68.4 µM
Inconclusive results are not listed. Active and inactive are the calls of the source. Calls follow the shape of the dose curve; as a rule, active = well fitted cell-killing curve with a large enough effect in the repeat runs; inconclusive = weak or mixed curves, or effect the other way; inactive = no such curve, though single readings can be large or run the other way.
Please reply with one of these outcomes: active, inactive

Use the examples below as a reference point.
CCc1cc(SCc2sc(-c3ccc(C(F)(F)F)cc3)nc2CN2CCN(c3ccc(OC)cc3)CC2)ccc1OCC(=O)O	active
CCCCCCCCCCCC(=O)NCCCN(C)C	active
CCCCCCCCCCCCCCCS(=O)(=O)Oc1ccccc1	inactive
Cc1cc(O)c(C(C)(C)C)cc1C(C)(C)C	active
CCCCCCCCCCCCCCCC[N+](C)(C)CCN(Cc1ccc(OC)cc1)c1ncccn1	active

Assay result, entry Cc1ccc(O)c2ncccc12 — outcome?
active

I would be grateful if you could indicate the recorded call for CCOc1nc2cccc(C(=O)OC(C)OC(=O)OC3CCCCC3)c2n1Cc1ccc(-c2ccccc2-c2nn[nH]n2)cc1 (stereo unspecified) .
active
